Values compiled from PubChem BioAssay AID488839.

Experimental System: Cyclin-dependent kinase 5 (Homo sapiens) + Cyclin-dependent kinase 5 activator 1 (Homo sapiens) (UniProt Q00535+Q15078)
Sequence (Q00535 whole entry, looked up): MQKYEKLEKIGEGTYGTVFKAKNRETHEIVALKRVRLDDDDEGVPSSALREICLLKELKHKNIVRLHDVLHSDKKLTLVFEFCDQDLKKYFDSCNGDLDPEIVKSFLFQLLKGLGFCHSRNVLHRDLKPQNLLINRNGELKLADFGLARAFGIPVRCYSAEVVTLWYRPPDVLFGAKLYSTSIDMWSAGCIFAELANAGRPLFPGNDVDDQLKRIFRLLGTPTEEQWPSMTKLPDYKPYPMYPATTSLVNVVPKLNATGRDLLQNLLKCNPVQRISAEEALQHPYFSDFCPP
Sequence (Q15078 whole entry, looked up): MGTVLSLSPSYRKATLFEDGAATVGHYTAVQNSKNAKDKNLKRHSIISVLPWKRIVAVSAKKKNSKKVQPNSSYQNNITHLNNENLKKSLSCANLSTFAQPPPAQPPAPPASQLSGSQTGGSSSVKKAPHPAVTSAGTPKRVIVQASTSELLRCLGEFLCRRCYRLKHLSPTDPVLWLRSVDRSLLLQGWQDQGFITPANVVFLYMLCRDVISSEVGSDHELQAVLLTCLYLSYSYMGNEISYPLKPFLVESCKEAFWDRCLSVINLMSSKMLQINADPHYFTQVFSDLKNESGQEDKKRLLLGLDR
Measurement Protocol: CDK5/p35 phosphotransfer blockade – biochemical, single concentration, primary screen (AID 488839);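 note: plate controls were DMSO neutral control for no effect and GW8510 at 10 µM for full effect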
Details: Recombinant CDK5/p35, ADP-Glo luminescence, 60 min; at 10 µM; stronger effect = higher value
In all, about 330,000 compounds went through this assay and about 35 (0.01%) were called active. Not all results are given here.
Measured Endpoint: inhibition (%)
Report the value in % with no unit label.

Consider the following illustrative entries.
> print(dat)
                                   compound  measured.endpoint  reported.result
1  CCC(C)c1ccccc1N1CC(C(=O)N2CCN(S(=O)(=O)c3ccc(F)cc3)CC2)CC1=O (stereo not drawn)         inhibition            0.723
2  COc1ccc(-c2nc(CN3CCN(c4ncccn4)CC3)c(C)o2)cc1C         inhibition            0.124
3     O=C(CNCc1ccc(F)cc1)Nc1ccccc1-c1ccccc1         inhibition            0.549

# input compound: Cc1cccc(NC(=O)c2ccc(OCC(=O)NCc3ccccc3)cc2)c1C ; wanted: its inhibition
0.801

// query inhibition value for entry O=C(NCCc1nnc2ccc(SCC(=O)N3CCOCC3)nn12)c1ccccc1
-3.67

Recorded inhibition of CCCNC(=O)NCc1ccc(N2CCCC2=O)cc1 , please.
-1.59

State the recorded inhibition for this entry: O=C(OCC(=O)N1CCN(C(=O)c2ccco2)CC1)c1c(Cl)cccc1Cl
0.768

What does the record list as inhibition for CCOC(=O)c1nc(-c2ccc3c(c2)OCO3)[nH]c1C ?
-1.03

Item CCOc1ccc(C(=O)NCC(=O)N2CCN(c3ccc(C(F)(F)F)cn3)CC2)cc1 has what recorded inhibition?
-6.9

Param item = CCOc1ccc(S(=O)(=O)N/N=C(\C)c2ccc(Cl)c(Cl)c2Cl)cc1 ; retrieve measured inhibition.
1.98

----------
Experimental System: Cyclin-dependent kinase 5 (Homo sapiens) + Cyclin-dependent kinase 5 activator 1 (Homo sapiens) (UniProt Q00535+Q15078)
Measurement Protocol: CDK5/p35 phosphotransfer blockade – biochemical, single concentration, primary screen (AID 488839)
Details: Recombinant CDK5/p35, ADP-Glo luminescence, 60 min; at 10 µM; stronger effect = higher value
About 35 (0.01%) of roughly 330,000 compounds were called active. These entries were drawn from the full list.
Measured Endpoint: inhibition (%)
Your answer is read as %, so omit the unit and give the number.

> print(dat)
                                   compound  measured.endpoint  reported.result
1  O=C(O)CN1C(=O)CC(Cc2ccccc2)C1=O (stereo not drawn)         inhibition            -1.35
2     Cc1c(CCO)c(=O)[nH]n1C(=O)c1c(F)cccc1F         inhibition            0.283
3  COC(C[C@@H](O)C[C@@H](O)[C@H](C)OCc1ccccc1)OC         inhibition           -0.836
4  NC1=NC(=O)C2(COC(c3ccccc3Cl)OC2)S1 (stereo not drawn)         inhibition            0.407

// lookup inhibition for CC(C)[C@H](NC(=O)N1CCn2c1nc1ccccc12)C(=O)NCCc1ccccc1
1.82

Return reported inhibition; argument: O=c1c2ccccc2ccc2ccc(P(=O)(O)O)cc12
1.94

Recorded inhibition for COc1ccc(OC)c(NC(=O)CN(Cc2ccc(Cl)cc2)S(C)(=O)=O)c1 , please?
0.423

----------
Experimental System: Cyclin-dependent kinase 5 (Homo sapiens) + Cyclin-dependent kinase 5 activator 1 (Homo sapiens) (UniProt Q00535+Q15078)
Measurement Protocol: CDK5/p35 phosphotransfer blockade – biochemical, single concentration, primary screen (AID 488839);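 note: plate controls were DMSO neutral control for no effect and GW8510 at 10 µM for full effect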
Details: Recombinant CDK5/p35, ADP-Glo luminescence, 60 min; at 10 µM; stronger effect = higher value
Out of some 330,000 compounds screened, about 35 (0.01%) were called active. The list is a sample of the results.
Each entry below lists one item and its recorded inhibition value.
Report the figure in % without appending any unit label.

In the examples that follow, each entry is paired with its recorded inhibition.
> print(dat)
                                   molecule  measured.endpoint  unit.annotation  reported.result
1  CCc1cccc(C)c1N(C(=O)Cn1c(CO)nc2ccccc21)C(C)COC (stereo not drawn)         inhibition                %           -0.226
2  CCOC(=O)c1cnc2ccc(F)cc2c1Nc1ccc2c(c1)OCCO2         inhibition                %          -0.0856
3  CCC(C)N(C(=O)Cn1nc(C)c([N+](=O)[O-])c1C)C1CCS(=O)(=O)C1 (stereo not drawn)         inhibition                %          -0.0593
4             COc1ccc(-c2nc3n(c2Br)CCC3)cc1         inhibition                %             1.75
5  COC(=O)c1sc(C(F)(F)F)c(-c2ccccc2)c1S(=O)(=O)N(C)C         inhibition                %           -0.853
6  Cn1c(=O)c([N+](=O)[O-])c(Oc2ccccc2)c2ccccc21         inhibition                %             3.54
7  CCCCN(CC(=O)Nc1cccc(S(=O)(=O)N2CCCC2)c1)Cc1nc2ccccc2c(=O)[nH]1         inhibition                %            0.255

Alright, here's another molecule for you.
I would be grateful if you could share the reported inhibition for COC(=O)c1ccccc1NC(=O)C1CCN(S(=O)(=O)c2cc(OC)ccc2OC)CC1 .
0.427

----------
Experimental System: Cyclin-dependent kinase 5 (Homo sapiens) + Cyclin-dependent kinase 5 activator 1 (Homo sapiens) (UniProt Q00535+Q15078)
Measurement Protocol: CDK5/p35 phosphotransfer blockade – biochemical, single concentration, primary screen (AID 488839);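 note: plate controls were DMSO neutral control for no effect and GW8510 at 10 µM for full effect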
Details: Recombinant CDK5/p35, ADP-Glo luminescence, 60 min; at 10 µM; stronger effect = higher value
Screen size: about 330,000 compounds; about 35 (0.01%) were called active. Only a sample is shown.
Measured Endpoint: inhibition (%)
Quick note: give the figure in %, leave out the unit.

Study these solved cases before continuing.
> print(dat)
                                   compound  measured.endpoint  unit.annotation  reported.result
1  COCC(C)n1c(C)cc(C(=O)COc2ccc(C)nc2[N+](=O)[O-])c1C (stereo not drawn)         inhibition                %             1.15
2  COc1ccc(C(=O)N2CCN(c3ccc(C(C)=O)cc3F)CC2)cc1S(=O)(=O)NC1CC1         inhibition                %            0.384
3  CCc1cc2c(=O)c(-c3nc4ccccc4n3C)c(CCCC(=O)O)oc2cc1OC(=O)C(C)(C)C         inhibition                %            -1.94
4  CON(C)S(=O)(=O)c1ccc2c(c1)NC(=O)C1CCCN21 (stereo not drawn)         inhibition                %            -2.05
5  O=C(Nc1ccn(CCCNCc2ccc3[nH]ccc3c2)c(=O)n1)OCc1ccccc1         inhibition                %             1.87
6  COc1cc(C2/C(=C(\O)c3ccc4c(c3)CC(C)O4)C(=O)C(=O)N2c2nnc(C)s2)cc(OC)c1OC (stereo not drawn)         inhibition                %            -1.78
7  COc1ccc(Cl)cc1NC(=O)CN(C)Cc1ccc(OC)c(OC)c1         inhibition                %            -3.62
8  O=C(CCc1nnc2ccc(NCc3ccco3)nn12)Nc1cc(F)ccc1F         inhibition                %            0.605

# query: inhibition of entry COc1ccc(C(=O)Cn2nnc(-c3ccc(N4CCOCC4)cc3)n2)cc1OC
-3.2

Using the record for CCN1C(=O)CS/C1=N\c1nccs1 , report its inhibition.
0.817

----------
Experimental System: Cyclin-dependent kinase 5 (Homo sapiens) + Cyclin-dependent kinase 5 activator 1 (Homo sapiens) (UniProt Q00535+Q15078)
Measurement Protocol: CDK5/p35 phosphotransfer blockade – biochemical, single concentration, primary screen (AID 488839);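 note: plate controls were DMSO neutral control for no effect and GW8510 at 10 µM for full effect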
Details: Recombinant CDK5/p35, ADP-Glo luminescence, 60 min; at 10 µM; stronger effect = higher value
The whole screen tested about 330,000 compounds, of which about 35 (0.01%) were called active. A selection follows.
The following compounds are shown together with reported inhibition values.

> print(dat)
                                   compound  measured.endpoint    reported.result
1  O=C(CN(C(=O)c1nsc(Cl)c1Cl)c1cccc(F)c1)NC1CCCC1         inhibition  0.211% (inactive)
2        Cc1oc(C(N)=O)cc1COc1ccc(C(N)=O)cc1         inhibition   1.55% (inactive)
3  COc1ccc(NC(=O)CC2C(=O)NC3CCCCC3N2C(=O)c2ccc(F)cc2)cc1 (stereo not drawn)         inhibition  0.318% (inactive)

Which inhibition reading was recorded for the compound OCc1n[nH]c(CO)n1 ?
-0.355% (inactive)

Which inhibition is reported for this compound? O=C(C1CCCO1)N(Cc1ccccc1)c1ccccc1 (stereo not drawn)
-1.15% (inactive)

So what's the measured inhibition for this one? CCc1[nH]nc(C(=O)N2CCCC(CNS(=O)(=O)c3cccs3)C2)c1C (stereo not drawn)
0.235% (inactive)

Please look up its inhibition: COc1cc(OC)c(C2=NOC(C(=O)Nc3c(C)n(C)n(-c4ccccc4)c3=O)C2)cc1Cl (stereo not drawn)
-0.625% (inactive)

Requested field: inhibition. Item: COc1ccc(CCNC(=O)CCc2cn(C)c3ccccc23)c(OC)c1
1.21% (inactive)

Look up inhibition for this compound: CCC(C)(C)NC(=O)C(c1ccc(OC)cc1)N(C(=O)CCC(=O)Nc1cc(C)on1)c1ccc(OC)cc1OC (stereo not drawn)
-0.155% (inactive)

Given the compound CCCN1CNC(=S)N(CCc2ccccc2)C1 , what is its reported inhibition?
0.897% (inactive)

Could you tell me which inhibition is on file for COCCn1c(SC(C)C(=O)NC2CC2)nnc1-c1cccc(C)c1 (stereo not drawn) ?
-7.75% (inactive)

Could you tell me which inhibition is on file for O=C(Cn1cnc2c(OCc3ccccc3)ncnc21)NCCCn1ccnc1 ?
1.18% (inactive)

Please look up its inhibition: c1cc(-n2cnnn2)ccc1NC1=NCCC1
-1.51% (inactive)
